- run_parameters: 363.15 K; 101.33 kPa; Liquid; Vibrating tube method
endpoint_name: mass density (kg/m3)
Expressed in kg/m3, but write only the number.

[[record]]
molecule = "CCc1cccc[n+]1CC.O=S(=O)([N-]S(=O)(=O)C(F)(F)F)C(F)(F)F [1,2-diethylpyridin-1-ium bis((trifluoromethyl)sulfonyl)imide]"
observed_measurement = 1410

[[record]]
molecule = "CCCCc1cccc[n+]1CC.O=S(=O)([N-]S(=O)(=O)C(F)(F)F)C(F)(F)F"
observed_measurement = 1351


Find the measured mass density of `CCCCCCCCc1cccc[n+]1CC.O=S(=O)([N-]S(=O)(=O)C(F)(F)F)C(F)(F)F` and report it.
1243.6

Find the measured mass density of `CCCCCc1cccc[n+]1CC.O=S(=O)([N-]S(=O)(=O)C(F)(F)F)C(F)(F)F` and report it.
1314.3

Taken from the NIST ThermoML archive (doi:10.1016/j.fluid.2016.05.030).
